Consider the following compounds; for each one, report its DC50.
target: Cbl-b (Homo sapiens, UniProt Q13191); construct: Cbl-b-HiBit KI Jurkat Cells were purchased from Promega; host or cells: Cbl-b-HiBiT knock-in Jurkat cells; assay: Cbl-b Degradation Method A (FACS, anti-Cbl-b antibody staining); type: cell-based; conditions: Cbl-b-HiBit KI Jurkat Cells, incubated at least 20 hours; half maximal degradation; read-out: Cbl-b Degredation Method A IC50
Sequence (Q13191 whole entry): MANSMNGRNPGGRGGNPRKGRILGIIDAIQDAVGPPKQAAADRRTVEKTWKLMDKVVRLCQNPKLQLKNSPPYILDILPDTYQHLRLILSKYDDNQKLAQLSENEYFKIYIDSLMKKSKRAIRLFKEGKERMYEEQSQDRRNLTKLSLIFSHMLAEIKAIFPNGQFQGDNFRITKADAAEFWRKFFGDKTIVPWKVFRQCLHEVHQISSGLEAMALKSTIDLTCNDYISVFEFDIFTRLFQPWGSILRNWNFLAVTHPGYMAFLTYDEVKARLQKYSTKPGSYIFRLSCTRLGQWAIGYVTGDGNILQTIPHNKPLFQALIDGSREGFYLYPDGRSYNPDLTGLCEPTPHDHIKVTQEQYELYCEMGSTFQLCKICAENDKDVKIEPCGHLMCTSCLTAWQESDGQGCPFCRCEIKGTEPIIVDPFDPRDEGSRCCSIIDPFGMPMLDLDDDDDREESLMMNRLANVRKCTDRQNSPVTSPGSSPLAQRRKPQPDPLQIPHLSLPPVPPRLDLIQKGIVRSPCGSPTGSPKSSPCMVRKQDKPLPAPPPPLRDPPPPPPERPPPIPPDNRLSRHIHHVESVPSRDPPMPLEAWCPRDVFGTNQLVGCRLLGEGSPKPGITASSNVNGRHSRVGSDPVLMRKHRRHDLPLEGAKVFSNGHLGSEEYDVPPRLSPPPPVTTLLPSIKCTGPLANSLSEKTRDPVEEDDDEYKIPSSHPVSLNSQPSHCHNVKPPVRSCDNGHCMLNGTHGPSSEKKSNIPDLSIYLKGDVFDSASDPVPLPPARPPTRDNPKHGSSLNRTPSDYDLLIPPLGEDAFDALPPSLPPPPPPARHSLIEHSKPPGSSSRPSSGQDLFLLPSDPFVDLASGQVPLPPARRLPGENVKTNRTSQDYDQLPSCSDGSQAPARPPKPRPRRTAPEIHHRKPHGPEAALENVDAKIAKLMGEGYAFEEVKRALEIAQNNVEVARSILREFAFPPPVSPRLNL

>>> recorded_measurement("Cn1cnnc1CC1(c2cccc(N3Cc4c(cc(N5CC6(CCN(CC7CCN(c8ccc9c(c8Cl)CN(C8CCC(=O)NC8=O)C9=O)CC7)CC6)C5)cc4C(F)(F)F)C3=O)c2)COC1 (stereo not drawn) [Example 4]")
"< 5 nM"

Here are 8 compounds. What values of DC50 were reported for them?
1. Cn1cnnc1CC1(c2cccc(N3Cc4c(cc(N5CC6(CCN(c7ccc8c(c7)C(=O)N(C7CCC(=O)NC7=O)C8=O)C6)C5)cc4C(F)(F)F)C3=O)c2)COC1 (stereo not drawn) [Example 126]
2. Cn1cnnc1CC1(c2cccc(N3Cc4c(cc(N5CC6(CCN(CC7CN(c8ccc9c(c8)C(=O)N(C8CCC(=O)NC8=O)C9=O)C7)CC6)C5)cc4C(F)(F)F)C3=O)c2)COC1 (stereo not drawn) [Example 132]
3. COc1c(N2CCC(O[C@H]3CC[C@@H](CN4CCN(C[C@H]5CCCN(Cc6cc7c(c(C(F)(F)F)c6)CN(c6cccc(C8(Cc9nncn9C)COC8)c6)C7=O)C5)CC4)CC3)CC2)ccc2c1CN(C1CCC(=O)NC1=O)C2=O (stereo partly drawn) [Example 163]
4. CC1c2nc(N3CCC(OC4CCC(CN5CCN(Cc6cc7c(c(C(F)(F)F)c6)CN(c6cccc(C8(Cc9nncn9C)COC8)c6)C7=O)C[C@H]5C)CC4)CC3)ccc2C(=O)N1C1CCC(=O)NC1=O (stereo partly drawn) [Example 238]
5. Cn1cnnc1CC1(c2cccc(N3Cc4c(cc(NCC[C@H]5CC[C@H](OC6CCN(c7ccc8c(c7F)CN(C7CCC(=O)NC7=O)C8=O)CC6)CC5)cc4C(F)(F)F)C3=O)c2)COC1 (stereo partly drawn) [Example 17]
6. Cn1cnnc1CC1(c2cccc(N3Cc4c(cc(CN5CCC(CN6CCC(C7CCN(c8ccc9c(c8)C(=O)N(C8CCC(=O)NC8=O)C9=O)CC7)CC6)CC5)cc4C(F)(F)F)C3=O)c2)COC1 (stereo not drawn) [Example 77]
7. Cn1cnnc1CC1(c2cccc(N3Cc4c(cc(N5CCC[C@H](CN6CCC(CN7CCC(CN8CCN(c9ccc%10c(c9)C(=O)N(C9CCC(=O)NC9=O)C%10=O)CC8)CC7)CC6)C5)cc4C(F)(F)F)C3=O)c2)COC1 (stereo partly drawn) [Example 16]
8. Cn1cnnc1CC1(c2cccc(N3Cc4c(cc(CN5CCC[C@H](CN6CCC(CC7CCN(c8ccc9c(c8)C(=O)N(C8CCC(=O)NC8=O)C9=O)CC7)CC6)C5)cc4C(F)(F)F)C3=O)c2)COC1 (stereo partly drawn) [Example 111]

-- reply
["> 500 nM", "5 to 50 nM", "< 5 nM", "5 to 50 nM", "> 500 nM", "> 500 nM", "50 to 500 nM", "50 to 500 nM"]

###

Consider the following molecules; for each one, report its Dmax.
molecular target: Cbl-b (Homo sapiens); construct: Cbl-b-HiBit KI Jurkat Cells were purchased from Promega; host or cells: Cbl-b-HiBiT knock-in Jurkat cells; experiment: Cbl-b Degradation Method B (Nano-Glo HiBiT lytic detection); assay type: cell-based; settings: Cbl-b-HiBit KI Jurkat Cells, incubated at least 6-24 hours; maximum degradation observed; read-out: Cbl-b Degredation Method B Dmax (%)

>>> recorded_measurement("CC1c2nc(N3CCC(O[C@H]4CC[C@H](CN5C[C@@H]6C[C@H]5CN6Cc5cc6c(c(C(F)(F)F)c5)CN(c5cccc([C@]7(Cc8nncn8C)C[C@H](C#N)C7)c5)C6=O)CC4)CC3)ccc2C(=O)N1C1CCC(=O)NC1=O (some centres unmarked) [Example 214]")
"35 to 70%"
>>> recorded_measurement("Cn1cnnc1C[C@]1(c2cccc(N3Cc4c(cc(CN5CCN(C[C@H]6CC[C@H](OC7CCN(c8ccc9c(c8F)CN(C8CCC(=O)NC8=O)C9=O)CC7)CC6)CC5)cc4C(F)(F)F)C3=O)c2)C[C@@H](C#N)C1 (some centres unmarked) [Example 14]")
"35 to 70%"
>>> recorded_measurement("CCn1cnnc1CC1(c2cccc(N3Cc4c(cc(CN5CCN(C[C@H]6CC[C@H](OC7CCN(c8ccc9c(n8)C(C)N(C8CCC(=O)NC8=O)C9=O)CC7)CC6)CC5)cc4C(F)(F)F)C3=O)c2)COC1 (mixture of isomers) [Example 235]")
"35 to 70%"

Here are 3 molecules. What values of Dmax were reported for them?
1. CC1c2nc(N3CCC(O[C@H]4CC[C@H](CN5C[C@H]6C[C@@H]5CN6Cc5cc6c(c(C(F)(F)F)c5)CN(c5cccc(C7(Cc8nncn8C)CC7)c5)C6=O)CC4)CC3)ccc2C(=O)N1C1CCC(=O)NC1=O (some centres unmarked) [Example 222]
2. Cn1cnnc1[C@]1(c2cccc(N3Cc4c(cc(CN5CCC[C@H](CN6CCN(C[C@H]7CC[C@@H](OC8CCN(c9ccc%10c(c9F)CN(C9CCC(=O)NC9=O)C%10=O)CC8)CC7)CC6)C5)cc4C(F)(F)F)C3=O)c2)C[C@@H](C)C1 (some centres unmarked) [Example 157]
3. CC1c2nc(N3CCC(O[C@H]4CC[C@H](CN5CCN(Cc6cc7c(c(C(F)(F)F)c6)CN(c6cccc(C8(Cc9nncn9C)COC8)c6)C7=O)CC5(C)C)CC4)CC3)ccc2C(=O)N1C1CCC(=O)NC1=O (mixture of isomers) [Example 236]

-- reply
35 to 70%
35 to 70%
> 70%

Here are 7 molecules. What values of Dmax were reported for them?
1. Cc1cc(N2CCC(O[C@H]3CC[C@H](CN4CCC5(CCN(c6cc7c(c(C(F)(F)F)c6)CN(c6cccc([C@]8(Cc9nncn9C)C[C@@H](C#N)C8)c6)C7=O)C5)C4)CC3)CC2)c(F)c2c1C(=O)N(C1CCC(=O)NC1=O)C2 (some centres unmarked) [Example 188]
2. Cn1cnnc1C[C@]1(c2cccc(N3Cc4c(cc(CN5CCN(C[C@H]6CC[C@H](OC7CCN(c8cccc9c8n(C)c(=O)n9C8CCC(=O)NC8=O)CC7)CC6)CC5(C)C)cc4C(F)(F)F)C3=O)c2)C[C@H](C#N)C1 (some centres unmarked) [Example 274]
3. Cn1cnnc1CC1(c2cccc(N3Cc4c(cc(CN5CCN(C[C@H]6CC[C@H](OC7CCN(c8ccc9c(c8Cl)CN(C8CCC(=O)NC8=O)C9=O)CC7)CC6)CC5)cc4C(F)(F)F)C3=O)c2)COC1 (some centres unmarked) [Example 24]
4. CC1c2nc(N3CCC(O[C@H]4CC[C@H](CN5CCN(Cc6cc7c(c(C(F)(F)F)c6)CN(c6cccc([C@]8(Cc9nncn9C)C[C@@H](C#N)C8)c6)C7=O)C(C)(C)C5)CC4)CC3)ccc2C(=O)N1C1CCC(=O)NC1=O (some centres unmarked) [Example 152]
5. CC1CN(Cc2cc3c(c(C(F)(F)F)c2)CN(c2cccc(C4(Cc5nncn5C)COC4)c2)C3=O)CCN1C[C@H]1CC[C@H](OC2CCN(c3ccc4c(c3F)CN(C3CCC(=O)NC3=O)C4=O)CC2)CC1 (some centres unmarked) [Example 196]
6. Cn1cnnc1C[C@]1(c2cccc(N3Cc4c(cc(N5CC6(CCN(C(=O)C7CCN(c8ccc9c(c8)C(=O)N(C8CCC(=O)NC8=O)C9=O)CC7)CC6)C5)cc4C(F)(F)F)C3=O)c2)C[C@H](C#N)C1 (some centres unmarked) [Example 146]
7. Cn1cnnc1CC1(c2cccc(N3Cc4c(cc(N5CC6(CCN(CC7CCN(c8ccc9c(c8)C(=O)N(C8CCC(=O)NC8=O)C9=O)CC7)CC6)C5)cc4C(F)(F)F)C3=O)c2)COC1 (centres unmarked) [Example 115]

-- reply
1: 35 to 70%; 2: > 70%; 3: > 70%; 4: 35 to 70%; 5: 35 to 70%; 6: < 35%; 7: 35 to 70%

Here are 2 molecules. What values of Dmax were reported for them?
1. CC1CN(C[C@H]2CC[C@H](OC3CCN(c4ccc5c(n4)C(C)N(C4CCC(=O)NC4=O)C5=O)CC3)CC2)CCN1Cc1cc2c(c(C(F)(F)F)c1)CN(c1cccc(C3(Cc4nncn4C)CC3)c1)C2=O (some centres unmarked) [Example 212]
2. Cn1cnnc1[C@]1(c2cccc(N3Cc4c(cc(CN5CCC[C@H](CN6CCN(C[C@H]7CC[C@@H](OC8CCN(c9ccc%10c(c9F)CN(C9CCC(=O)NC9=O)C%10=O)CC8)CC7)CC6)C5)cc4C(F)(F)F)C3=O)c2)C[C@H](C)C1 (some centres unmarked) [Example 159]

-- reply
1. 35 to 70%
2. 35 to 70%

Here are 2 molecules. What values of Dmax were reported for them?
1. Cc1cc(N2CCC(O[C@H]3CC[C@H](CN4CCN(Cc5cc6c(c(C(F)(F)F)c5)CN(c5cccc([C@]7(Cc8nncn8C)C[C@H](C#N)C7)c5)C6=O)[C@@H](C)C4)CC3)CC2)c(F)c2c1C(=O)N(C1CCC(=O)NC1=O)C2 (some centres unmarked) [Example 220]
2. C[C@H]1CN(C[C@H]2CC[C@@H](OC3CCN(c4ccc5c(c4F)CN(C4CCC(=O)NC4=O)C5=O)CC3)CC2)CCN1Cc1cc2c(c(C(F)(F)F)c1)CN(c1cccc(C3(Cc4nncn4C)COC3)c1)C2=O (some centres unmarked) [Example 194]

-- reply
1. > 70%
2. 35 to 70%

Cited source for all entries: patent US20260184710A1
